Values from patent US9926304B2

Test system: SW620 human colorectal cancer cells
Experiment: MTT based cell viability assay: potentiation of the growth inhibiting activity of MMS
Details: Homo sapiens, SW-620, 120 h, read-out: IC50 (nM), potentiation of the growth inhibiting activity of MMS, SW620 cells, 1.7 μg/ml MMS, 5 days (120 hours), MTT
This listing pairs compounds with measured IC50.
ENDPOINT: IC50

{"COMPOUND STRUCTURE": "O=C(NCc1cccc(Cl)c1)c1cc(Cn2c(=O)[nH]c(=O)c3c(F)cccc32)ccc1F", "ENDPOINT VALUE": "> 10000 nM"}
{"COMPOUND STRUCTURE": "O=C(c1ccc(F)cc1)N1CCN(C(=O)c2ccc(Cn3c(=O)[nH]c(=O)c4ccccc43)cc2)CC1", "ENDPOINT VALUE": "> 10000 nM"}
{"COMPOUND STRUCTURE": "Cc1cccc2c(=O)n(Cc3cccc(C(=O)N4CCN(c5ncccn5)CC4)c3)c(=O)[nH]c12", "ENDPOINT VALUE": "> 10000 nM"}
{"COMPOUND STRUCTURE": "O=C(c1cc(Cn2c(=O)[nH]c(=O)c3cc(F)ccc32)ccc1F)N1CCN(c2nccs2)CC1", "ENDPOINT VALUE": "7.8 nM"}
{"COMPOUND STRUCTURE": "O=C(c1cccc(Cn2c(=O)[nH]c(=O)c3ccccc32)c1)N1CCC(N2CCCCC2)CC1", "ENDPOINT VALUE": "> 10000 nM"}
